Values were extracted from patent US5532263A.

subject_of_test: HeLa cell topo II (Homo sapiens)
Sequence (P11388 whole entry): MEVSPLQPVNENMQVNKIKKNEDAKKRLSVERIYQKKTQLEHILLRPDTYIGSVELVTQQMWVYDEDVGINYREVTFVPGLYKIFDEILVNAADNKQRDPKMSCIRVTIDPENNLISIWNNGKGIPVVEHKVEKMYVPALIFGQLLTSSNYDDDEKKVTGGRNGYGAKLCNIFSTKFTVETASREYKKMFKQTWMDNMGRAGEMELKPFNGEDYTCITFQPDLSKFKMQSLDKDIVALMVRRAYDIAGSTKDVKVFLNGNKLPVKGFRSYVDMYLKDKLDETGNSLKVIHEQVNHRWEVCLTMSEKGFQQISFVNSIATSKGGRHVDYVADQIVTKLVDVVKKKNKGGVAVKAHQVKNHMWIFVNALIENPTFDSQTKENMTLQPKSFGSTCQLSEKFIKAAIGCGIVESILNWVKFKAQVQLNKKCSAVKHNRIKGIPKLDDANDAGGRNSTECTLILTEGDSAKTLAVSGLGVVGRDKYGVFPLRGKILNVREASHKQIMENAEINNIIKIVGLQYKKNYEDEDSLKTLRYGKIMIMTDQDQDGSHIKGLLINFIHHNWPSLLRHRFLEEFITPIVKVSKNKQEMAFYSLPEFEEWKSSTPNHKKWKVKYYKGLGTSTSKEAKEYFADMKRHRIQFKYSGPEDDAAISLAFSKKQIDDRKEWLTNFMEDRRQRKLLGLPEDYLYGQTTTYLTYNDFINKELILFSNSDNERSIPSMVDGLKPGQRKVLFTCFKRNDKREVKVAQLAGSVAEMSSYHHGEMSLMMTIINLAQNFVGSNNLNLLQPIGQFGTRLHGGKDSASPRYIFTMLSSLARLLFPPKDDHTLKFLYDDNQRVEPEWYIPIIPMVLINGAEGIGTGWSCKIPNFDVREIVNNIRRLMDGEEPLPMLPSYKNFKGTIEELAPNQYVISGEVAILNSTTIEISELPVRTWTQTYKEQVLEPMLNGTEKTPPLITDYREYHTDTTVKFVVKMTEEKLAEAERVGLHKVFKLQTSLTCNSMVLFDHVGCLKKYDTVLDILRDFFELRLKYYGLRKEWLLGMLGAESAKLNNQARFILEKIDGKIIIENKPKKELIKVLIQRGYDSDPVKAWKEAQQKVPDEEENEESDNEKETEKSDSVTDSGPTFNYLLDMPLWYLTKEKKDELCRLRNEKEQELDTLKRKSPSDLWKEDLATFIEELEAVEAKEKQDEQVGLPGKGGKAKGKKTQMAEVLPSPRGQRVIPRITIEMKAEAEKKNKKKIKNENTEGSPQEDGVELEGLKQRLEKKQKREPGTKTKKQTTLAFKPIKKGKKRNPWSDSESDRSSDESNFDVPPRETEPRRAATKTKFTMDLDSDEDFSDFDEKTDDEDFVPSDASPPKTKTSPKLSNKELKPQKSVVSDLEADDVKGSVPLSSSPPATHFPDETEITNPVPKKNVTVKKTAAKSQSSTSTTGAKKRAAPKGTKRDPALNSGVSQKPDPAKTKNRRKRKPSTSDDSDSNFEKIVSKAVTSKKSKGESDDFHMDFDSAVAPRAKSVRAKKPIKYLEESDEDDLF
protocol_notes: Topoisomerase II inhibition: promotion of covalent complex formation between pBR322 DNA and topo II (SDS/K+ precipitation)
Type: biochemical
condition_details: DNA precipitated equivalent to 50% of the maximum precipitated by m-AMSA; read-out: topo II inhib EC50
Structures can show the parent of a compound that is named as a salt.
Each entry below lists one item and its recorded EC50 value.

Recorded EC50, per entry:
compound="CCN(CC)CCn1nc2c3c(c(CNC=O)ccc31)Sc1ccc(OC)cc1-2 [Ex 6]" measured="> 240 µM"
compound="CCN(CC)CCn1nc2c3c(c(CNC)ccc31)Sc1ccccc1-2 [Ex 10, dihydrochloride hydrate]" measured="> 220 µM"
compound="CCN(CC)CCn1nc2c3c(c(CNC(=O)OC)ccc31)Sc1ccccc1-2 [Ex 13]" measured="> 240 µM"
compound="CCN(CC)CCn1nc2c3c(c(CNC(=O)OC)ccc31)Sc1ccc(OC)cc1-2 [Ex 14]" measured="> 220 µM"
compound="CCN(CC)CCn1nc2c3c(c(CN)ccc31)Sc1ccccc1-2 [Ex 8]" measured="> 250 µM"
compound="CCN(CC)CCn1nc2c3c(c(CNS(C)(=O)=O)ccc31)Sc1ccc(OC)cc1-2 [Ex 12]" measured="> 210 µM"
compound="CCN(CC)CCn1nc2c3c(c(CNC=O)ccc31)Sc1ccccc1-2 [Ex 5]" measured="> 260 µM"
compound="CCN(CC)CCn1nc2c3c(c(CN)ccc31)Sc1ccc(OC)cc1-2 [Ex 9]" measured="> 260 µM"

Now look at this entry.
Data point: CCN(CC)CCn1nc2c3c(c(CNS(C)(=O)=O)ccc31)Sc1ccccc1-2 [Ex 11] ; EC50 = > 230 µM
